- Tgt: UniProt:Q9NWZ3
- Method: Reaction Biology NanoBRET target engagement assay in HEK-293 cells, IRAK4
- Type: cell-based
- Run Conditions: live HEK-293 cells transfected with Kinase-NanoLuc fusion, 1 hour
pIC50: −log10 of the molar value.
Each item that follows carries a reported pIC50.

Worked cases, pIC50 given:
CC(C)(O)c1cn2c(-c3nc(N[C@H]4CNCC[C@@H]4F)ncc3F)cnc2cn1 [Compound 100a] | 8.10
F[C@H]1CCNC[C@@H]1Nc1nccc(-c2cnc3cc(OC4CC4)c(C4CC4)nn23)n1 [Compound 12a] | > 9.30
CC(C)(O)c1ccc2ncc(-c3nc(N[C@H]4CNCC[C@@H]4F)ncc3F)n2c1 [Compound 46a] | 8.40

Query: pIC50; subject: CC(O)(c1ccc2ncc(-c3cncc(N[C@H]4CNCC[C@@H]4F)n3)n2c1)C(F)(F)F (single isomer, unassigned) [Compound 31a]
> 9.30

Entry to check: CC(O)(c1ccc2ncc(-c3cncc(N[C@@H]4CCCNC4)n3)n2c1)C(F)(F)F (single isomer, unassigned) [Compound 28a]
> 9.30

Entry to check: COc1cc2ncc(-c3nc(N[C@H]4CNCC[C@@H]4F)ncc3F)n2nc1C1CC1 [Compound 1a]
> 9.30

Entry to check: COc1cc2ncc(-c3ccnc(N[C@H]4CNCC[C@@H]4F)n3)n2nc1C1CCC1 [Compound 79a]
> 9.30

---

- Tgt: IRAK4 (Homo sapiens, UniProt Q9NWZ3)
- Sequence (Q9NWZ3 1-460): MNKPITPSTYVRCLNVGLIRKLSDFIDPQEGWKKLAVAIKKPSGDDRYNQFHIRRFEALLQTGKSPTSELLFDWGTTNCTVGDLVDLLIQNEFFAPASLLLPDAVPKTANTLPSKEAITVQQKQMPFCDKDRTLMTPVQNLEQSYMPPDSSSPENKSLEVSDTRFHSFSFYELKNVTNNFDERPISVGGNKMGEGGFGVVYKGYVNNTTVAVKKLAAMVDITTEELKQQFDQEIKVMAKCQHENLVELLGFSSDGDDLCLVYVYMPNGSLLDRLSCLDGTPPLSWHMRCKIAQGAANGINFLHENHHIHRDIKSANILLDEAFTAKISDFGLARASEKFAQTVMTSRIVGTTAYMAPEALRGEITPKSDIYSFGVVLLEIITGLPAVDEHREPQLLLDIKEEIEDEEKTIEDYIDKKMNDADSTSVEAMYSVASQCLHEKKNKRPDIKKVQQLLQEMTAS
- Method: RBC HotSpot Kinase Assay, IRAK4
- Type: biochemical
- Set-up: purchased Reaction Biology (RBC HotSpot)
- Run Conditions: isolated kinase enzyme, 33P-ATP, P81 filter-binding
Each item that follows carries a reported log10(IC50).
In our notation, the value equals log10 of IC50 in nM.

COc1cc2ncc(-c3nc(N[C@@H]4CCCNC4)ncc3F)n2nc1C12CC(C1)C2 [Compound 68a] | -0.10

Query: log10(IC50); subject: F[C@H]1CCNC[C@@H]1Nc1nccc(-c2cnc3cc(OC4CC4)c(C4CC4)nn23)n1 [Compound 12a]
0.78

Entry to check: CC(O)(c1cn2c(-c3nc(N[C@H]4CNCC[C@@H]4F)ncc3F)cnc2cn1)C(F)(F)F (single isomer, unassigned) [Compound 134a]
0.00

Entry to check: CC(O)(c1ccc2ncc(-c3nc(N[C@@H]4CCCNC4)ncc3F)n2c1)C(F)(F)F (single isomer, unassigned) [Compound 37a]
0.30

Entry to check: COc1cc2ncc(-c3nc(N[C@@H]4CCCNC4)ncc3F)n2nc1C(C)(C)O [Compound 43a]
1.46

Entry to check: COc1cc2ncc(-c3nc(N[C@@H]4CCCNC4)ncc3F)n2nc1C1COC1 [Compound 94a]
0.60

Entry to check: CC(O)(c1ccc2ncc(-c3ccnc(N[C@H]4CNCC[C@@H]4F)n3)n2c1)C(F)(F)F (single isomer, unassigned) [Compound 25a]
0.30
